# target-under-test: T1, Aggregatibacter actinomycetemcomitans leukotoxin (LtxA) (Aggregatibacter actinomycetemcomitans …, UniProt P16462 1-1055)
# T1 sequence: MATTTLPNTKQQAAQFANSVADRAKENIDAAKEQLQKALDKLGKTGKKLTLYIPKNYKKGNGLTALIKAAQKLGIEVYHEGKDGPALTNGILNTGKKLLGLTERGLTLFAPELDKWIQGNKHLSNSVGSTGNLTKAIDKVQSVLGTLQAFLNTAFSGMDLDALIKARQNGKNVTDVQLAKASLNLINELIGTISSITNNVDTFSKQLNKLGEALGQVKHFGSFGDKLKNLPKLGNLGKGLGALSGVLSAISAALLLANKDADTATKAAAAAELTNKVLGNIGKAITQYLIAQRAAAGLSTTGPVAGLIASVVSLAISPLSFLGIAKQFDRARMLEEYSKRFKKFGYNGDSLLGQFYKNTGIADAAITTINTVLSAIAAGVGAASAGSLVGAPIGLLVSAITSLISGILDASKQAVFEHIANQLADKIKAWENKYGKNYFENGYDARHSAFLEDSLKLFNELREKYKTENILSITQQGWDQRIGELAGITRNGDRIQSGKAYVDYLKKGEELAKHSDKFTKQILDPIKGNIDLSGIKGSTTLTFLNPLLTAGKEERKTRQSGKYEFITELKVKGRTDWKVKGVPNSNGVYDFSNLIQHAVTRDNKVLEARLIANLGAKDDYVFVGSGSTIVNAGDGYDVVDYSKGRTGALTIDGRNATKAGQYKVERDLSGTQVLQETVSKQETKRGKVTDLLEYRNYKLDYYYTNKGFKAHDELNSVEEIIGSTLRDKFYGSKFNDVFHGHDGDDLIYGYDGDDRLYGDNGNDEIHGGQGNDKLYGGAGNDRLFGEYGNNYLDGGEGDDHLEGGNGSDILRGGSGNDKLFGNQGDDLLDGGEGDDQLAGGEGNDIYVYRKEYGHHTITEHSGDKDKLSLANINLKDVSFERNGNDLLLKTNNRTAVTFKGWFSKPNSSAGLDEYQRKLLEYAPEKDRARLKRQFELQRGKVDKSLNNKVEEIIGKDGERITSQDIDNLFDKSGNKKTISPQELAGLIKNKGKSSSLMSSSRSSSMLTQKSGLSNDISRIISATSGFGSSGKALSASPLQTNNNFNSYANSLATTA
# test-summary: SPR
Each entry below lists one item and its recorded log10(kon) value.
Friendly reminder: values = log10 of kon, unit M⁻¹ s⁻¹.

What does the record list as log10(kon) for CKALIHLSDLREYRRFEKEKLKSQWNN [β2N2 peptide (longer N-terminal part of the β2 cytoplasmic tail, with WNN)] ?
4.15

Dear colleague, I am looking for the recorded log10(kon) of the following binder: CKVGFFKRNLKEKMEAGRGVPNGI [αLN peptide (N-terminal, membrane-proximal part of the αL cytoplasmic tail)]
3.92

// query log10(kon) value for entry CKALIHLSDLREYRRFEKEKLKSQWNNDNPLFKSATTTVMNPKFAES [β2 cytoplasmic tail peptide (integrin β2, LFA-1 β subunit)]
4.38

Find the recorded log10(kon) belonging to CKLGFFKRQYKDMMSEGGSPGAEPQ [αM cytoplasmic tail peptide (integrin αM)] and report it.
4.45

Could you share which log10(kon) value was measured for αL cytoplasmic tail peptide (integrin αL, LFA-1 α subunit) (peptide) peptide: CKVGFFKRNLKEKMEAGRGVPNGIPAEDSEQLASGQEAGDPGSLKPLHEKDSESGGGKD ?
3.93

Using the record for CKALIHLSDLREYRRFEKEKLKSQ [β2N peptide (N-terminal part of the β2 cytoplasmic tail)] , report its log10(kon).
3.79

# input binder: CKVGFFKRQYKEMMEEANGQIAPENGTQTPSPPSEK [αX cytoplasmic tail peptide (integrin αX)] ; wanted: its log10(kon)
5.11

Please give the measured log10(kon) for this binder: CKLLITIHDRKEFAKFEEERARAKWDTANNPLYKEATSTFTNITYRGT [β3 cytoplasmic tail peptide (integrin β3)]
4.41

Below: the item to evaluate.
So what does the record say about log10(kon) for CLKSQWNNDNPLFKSATTTVMNPKFAES [β2C peptide (C-terminal part of the β2 cytoplasmic tail)] ?
3.79

src = paper PMC6657692
